Target: creatine kinase (CK) in human serum (Homo sapiens, UniProt P06732)
Construct: Five fresh human serum samples were used; from tissue; host or cells: fresh human serum
Sequence (P06732 whole entry): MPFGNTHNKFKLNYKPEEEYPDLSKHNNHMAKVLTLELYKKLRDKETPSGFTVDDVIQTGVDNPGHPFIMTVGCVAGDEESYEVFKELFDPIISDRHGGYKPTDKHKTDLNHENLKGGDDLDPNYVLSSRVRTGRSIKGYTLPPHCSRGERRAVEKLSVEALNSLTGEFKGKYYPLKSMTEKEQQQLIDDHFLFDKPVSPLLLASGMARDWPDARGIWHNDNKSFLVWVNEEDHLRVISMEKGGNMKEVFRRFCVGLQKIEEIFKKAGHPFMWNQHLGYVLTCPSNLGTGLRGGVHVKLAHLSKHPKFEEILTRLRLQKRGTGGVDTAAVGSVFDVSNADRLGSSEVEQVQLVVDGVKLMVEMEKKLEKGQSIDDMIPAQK
Assay Protocol: Inhibitory effect of oxidized products of SH compounds on CK activity (HK/G6PDH UV method, NAC 26 mM as reactivator)
Assay type: biochemical
Settings: Sample 4; 5 mM SH compound oxidized product, NAC 26 mM, 37° C.
Recorded Metric: CK activity value (IU/l.)

Here's what some known entries look like.
OCC(O)CSSCC(O)CO (stereo not shown) [TG oxidized product]
333
O=S(=O)(O)CCSSCCS(=O)(=O)O [2MES oxidized product]
335
OCCSSCCO [2ME oxidized product]
332
c1ccc(SSc2ccccc2)cc1 [Thiophenol oxidized product]
139
O[C@@H]1CSSC[C@H]1O (relative stereo) [DTT oxidized product]
319
CC(=O)N[C@@H](CSSC[C@H](NC(C)=O)C(=O)O)C(=O)O [NAC oxidized product]
272
Nc1cc(O)nc(SSc2nc(N)cc(O)n2)n1 [AHMP oxidized product]
322
O=c1ccnc(SSc2nccc(=O)[nH]2)[nH]1 [2-Thiouracil oxidized product]
314

[I] OC[C@H]1O[C@@H](SS[C@@H]2O[C@H](CO)[C@@H](O)[C@H](O)[C@H]2O)[C@H](O)[C@@H](O)[C@@H]1O [TDG oxidized product]
[II] Nc1nc(SSc2nc(N)nc3c2ncn3[C@@H]2O[C@H](CO)[C@@H](O)[C@H]2O)c2ncn([C@@H]3O[C@H](CO)[C@@H](O)[C@H]3O)c2n1 [AMPR oxidized product]
Task item: // which entry reports the smaller CK activity value, I or II ? Answer format: the label of the selected item.
Reply: II

----------
Test system: creatine kinase (CK) in human serum
Assay Protocol: CK activity measured with enzyme solutions containing SH compounds as CK reactivator, fresh and after 1 month of storage (Example 1 / Comparative Example 1)
Format: biochemical
Settings: Sample 5; enzyme solution stored at 20° C. for 1 month; TG 100, 2ME 26, 2MES 26, NAC 26, L-cysteine 6.5, GSH 12, TDG 5, DTT 6.5 mM
The following compounds are shown together with reported CK activity value values.
The answer is to be given in IU/l; state only the numeric part.

Here's what some known entries look like.
CC(=O)N[C@@H](CS)C(=O)O [NAC, N-acetylcysteine]
78
O=S(=O)(O)CCS [2MES, 2-mercaptoethanesulfonic acid]
87
O.O.OC[C@H]1O[C@@H](S)[C@H](O)[C@@H](O)[C@@H]1O.[Na].[Na] [TDG]
0
OCCS [2ME, 2-mercaptoethanol]
89
N[C@@H](CS)C(=O)O [L-cysteine]
19

API: the following record is the query input.
Task item: Query: CK activity value; subject: OCC(O)CS (stereo not drawn) [TG, thioglycerol]
Reply: 88

----------
Test system: creatine kinase (CK) in human serum
Assay Protocol: CK activity measured with enzyme solutions containing SH compounds as CK reactivator, fresh and after 1 month of storage (Example 1 / Comparative Example 1)
Type: biochemical
Settings: Sample 4; enzyme solution stored at 20° C. for 1 month; TG 100, 2ME 26, 2MES 26, NAC 26, L-cysteine 6.5, GSH 12, TDG 5, DTT 6.5 mM
The following compounds are shown together with reported CK activity value values.
The answer is to be given in IU/l; state only the numeric part.

Here's what some known entries look like.
O=S(=O)(O)CCS
55
OCC(O)CS (stereo not drawn)
57
O.O.OC[C@H]1O[C@@H](S)[C@H](O)[C@@H](O)[C@@H]1O.[Na].[Na]
0
N[C@@H](CS)C(=O)O
12
CC(=O)N[C@@H](CS)C(=O)O
50

Task item: Query: CK activity value; subject: OCCS
Reply: 58

----------
Tested on: creatine kinase (CK) in human serum
Assay Protocol: CK activity measured with enzyme solutions containing SH compounds as CK reactivator, fresh and after 1 month of storage (Example 1 / Comparative Example 1)
Type: biochemical
Settings: enzyme solution just after preparation; NAC just after preparation = 100%
The following molecules are shown together with reported CK activity, relative value values.
The answer is to be given in %; state only the numeric part.

Here's what some known entries look like.
OCCS [2ME, 2-mercaptoethanol]
101.9
O=S(=O)(O)CCS [2MES, 2-mercaptoethanesulfonic acid]
101.4
CC(=O)N[C@@H](CS)C(=O)O [NAC, N-acetylcysteine]
100.0

API: the following record is the query input.
Task item: GET /values?readout=CK activity, relative value&system=creatine kinase (CK) in human serum&item= OCC(O)CS (stereo not shown) [TG, thioglycerol]
Reply: 101.4

----------
Target: creatine kinase (CK) in human serum (Homo sapiens, UniProt P06732)
Construct: Five fresh human serum samples were used; from tissue; host or cells: fresh human serum
Assay Protocol: Inhibitory effect of oxidized products of SH compounds on CK activity (HK/G6PDH UV method, NAC 26 mM as reactivator)
Assay type: biochemical
Settings: average with enzyme solution containing no SH compound oxidized product = 100%; 5 mM oxidized product; read-out: CK activity, relative value
Recorded Metric: activity at 5000 µM (%)

Here's what some known entries look like.
Nc1cc(O)nc(SSc2nc(N)cc(O)n2)n1
96
O=S(=O)(O)CCSSCCS(=O)(=O)O
99.3
O[C@@H]1CSSC[C@H]1O (relative stereo)
95.9
CC(=O)N[C@@H](CSSC[C@H](NC(C)=O)C(=O)O)C(=O)O
80.1
O=c1ccnc(SSc2nccc(=O)[nH]2)[nH]1
94.6
OCC(O)CSSCC(O)CO (centres unmarked)
100

[A] OC[C@H]1O[C@@H](SS[C@@H]2O[C@H](CO)[C@@H](O)[C@H](O)[C@H]2O)[C@H](O)[C@@H](O)[C@@H]1O
[B] Nc1nc(SSc2nc(N)nc3c2ncn3[C@@H]2O[C@H](CO)[C@@H](O)[C@H]2O)c2ncn([C@@H]3O[C@H](CO)[C@@H](O)[C@H]3O)c2n1
Task item: // which entry reports the smaller activity at 5000 µM, A or B ? Answer format: the label of the selected item.
Reply: B
(B: 0.2%, A: 90.2%)

----------
The following molecules are shown together with reported CK activity value values.
Tested on: creatine kinase (CK) in human serum
Assay Protocol: CK activity measured with enzyme solutions containing SH compounds as CK reactivator, fresh and after 1 month of storage (Example 1 / Comparative Example 1)
Format: biochemical
Settings: Sample 2; enzyme solution stored at 10° C. for 1 month; TG 100, 2ME 26, 2MES 26, NAC 26, L-cysteine 6.5, GSH 12, TDG 5, DTT 6.5 mM
The answer is to be given in IU/l; state only the numeric part.

OCC(O)CS (stereo not drawn)
556
CC(=O)N[C@@H](CS)C(=O)O
550
N[C@@H](CS)C(=O)O
437
O.O.OC[C@H]1O[C@@H](S)[C@H](O)[C@@H](O)[C@@H]1O.[Na].[Na]
3
O=S(=O)(O)CCS
548

API: the following record is the query input.
Task item: Query: CK activity value; subject: OCCS
Reply: 559

----------
Test system: creatine kinase (CK) in human serum
Assay Protocol: CK activity measured with enzyme solutions containing SH compounds as CK reactivator, fresh and after 1 month of storage (Example 1 / Comparative Example 1)
Type: biochemical
Settings: enzyme solution stored at 10° C. for 1 month; NAC just after preparation = 100%
The following compounds are shown together with reported CK activity, relative value values.
The answer is to be given in %; state only the numeric part.

N[C@@H](CS)C(=O)O [L-cysteine]
77.5

API: the following record is the query input.
Task item: Query: CK activity, relative value; subject: CC(=O)N[C@@H](CS)C(=O)O [NAC, N-acetylcysteine]
Reply: 101.0

----------
System: creatine kinase (CK) in human serum
Assay Protocol: CK activity measured with enzyme solutions containing SH compounds as CK reactivator, fresh and after 1 month of storage (Example 1 / Comparative Example 1)
Assay type: biochemical
Settings: Sample 1; enzyme solution stored at 20° C. for 1 month; TG 100, 2ME 26, 2MES 26, NAC 26, L-cysteine 6.5, GSH 12, TDG 5, DTT 6.5 mM
The following compounds are shown together with reported CK activity value values.
The answer is to be given in IU/l; state only the numeric part.

Here's what some known entries look like.
O.O.OC[C@H]1O[C@@H](S)[C@H](O)[C@@H](O)[C@@H]1O.[Na].[Na] [TDG]
0
CC(=O)N[C@@H](CS)C(=O)O [NAC, N-acetylcysteine]
166

Task item: GET /values?readout=CK activity value&system=creatine kinase (CK) in human serum&item= OCC(O)CS (centres unmarked) [TG, thioglycerol]
Reply: 180

Task item: What would you report for O=S(=O)(O)CCS [2MES, 2-mercaptoethanesulfonic acid] ?
Reply: 181

Task item: What would you report for N[C@@H](CS)C(=O)O [L-cysteine] ?
Reply: 52
